Origin of the recorded values: BigSolDB 2.1

- Measurement Conditions: in water, 313.2 K

Structure Smiles: COc1cc(/C=C/c2ccc(O)cc2)cc(OC)c1
solubility (mole fraction): 2.53e-06

----------
- Measurement Conditions: in propylene glycol, 303.2 K
Parameter: solubility (mole fraction)

Structure Smiles: COc1cc(/C=C/c2ccc(O)cc2)cc(OC)c1
Parameter: solubility (mole fraction)
Observed Result: 0.26

----------
- Measurement Conditions: in water, 303.2 K

Structure Smiles: COc1cc(/C=C/c2ccc(O)cc2)cc(OC)c1
solubility (mole fraction): 1.62e-06
